Tested on: KB3-1 cells
experimentalDetails: MTT assay, 72 h, KB3-1
Assay type: cell-based
statedConditions: Homo sapiens, KB 3-1, mean ± SD
Procedure: The cytotoxic potential of the synthesized compounds was investigated using the MTT assay after 72 h incubation with a panel of human and murine cancer cell lines, including colorectal carcinoma (HCT116), estrogen receptor-positive breast adenocarcinoma (MCF-7), triple-negative breast adenocarcinoma (MDA-MB-231), epidermoid carcinoma (KB3-1), myeloid leukemia (K562), and glioblastoma (U373), and mouse breast carcinoma (4T1) cells. […]
observationType: IC50

[[record]]
compound = "COc1ccc(N2C(=O)/C(=C/c3ccc(-c4ccccn4)cc3)SC23C(=O)Nc2ccc(Cl)cc23)cc1 (stereo not drawn)"
systemtested = "KB3-1 cells"
testvalue = "970 nM"

[[record]]
compound = "CC(C)(C)c1ccc(/C=C2\\SC3(C(=O)Nc4ccc(Br)cc43)N(c3ccc(Br)cc3)C2=O)cc1 (stereo not drawn)"
systemtested = "KB3-1 cells"
testvalue = "29500 nM"

[[record]]
compound = "COc1cccc2c1C(=O)c1c(O)c3c(c(O)c1C2=O)C[C@@](O)(C(=O)CO)C[C@@H]3O[C@H]1C[C@H](N)[C@H](O)[C@H](C)O1 [Dox, Doxorubicin, reference compound]"
systemtested = "KB3-1 cells"
testvalue = "530 nM"

